biological target: T1, PSD-95 PDZ1 domain (human, UniProt P78352 55-152); assay: ITC; 5 mM RRESEI in the syringe, PDZ1-2, PDZ1 or PDZ2 in the cell at nominally 0.13 mM; 25°C; 20 mM Tris-HCl, 150 mM NaCl pH 8.5; single class of sites; Kd and N could not be refined independently; conditions: both partners purified
T1 construct: Gly-Pro left at the N-terminus after HRV 3C cleavage of the tag; PSD-95, human, PDZ1, residues 55-152 of UniProt P78352 (98-195 of P78352-2); Glutathione was not used in the purification of the single domains; source: E. coli BL21(DE3), purified (Ni-NTA, HRV 3C tag cleavage, negative Ni-NTA, Superdex 200 SEC); not shown: His6, N-terminal, cleaved
T1 sequence (P78352 other isoform, or with tags, fused parts or gaps): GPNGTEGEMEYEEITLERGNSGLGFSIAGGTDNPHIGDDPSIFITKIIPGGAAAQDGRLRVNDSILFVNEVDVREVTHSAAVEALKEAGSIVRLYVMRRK
assay readout: pKd
Notebook: values listed as pKd are -log10 of the concentration (mol/L).

pKd recorded for this binder, RRESEI (C-terminal six residues (422-427) of the inwardly rectifying potassium channel Kir2.1; also called RRESEI ligand; ligand peptide; source: synthetic peptide, 98% purity; bought: Peptide Protein Research) [RRESEI peptide (last six residues, 422-427, of Kir2.1)] , is 5.22
